Molecular target: HLA-A*02:19
Assay: IEDB peptide-MHC binding, purified MHC/direct/fluorescence; filed as Kd, often an IC50 or EC50 that approximates it; bounds were set here for any values at or beyond the usual limits of such assays
Settings: source organism: Yersinia enterocolitica subsp. enterocolitica 8081
pKd: −log10 of the molar value.
quantity_name: pKd

Task: So what's the measured pKd for this one? "ETIFTVLAL"
Output: ≤ 4.70

====

Target: HLA-A*11:01
Experiment: IEDB peptide-MHC binding, purified MHC/direct/fluorescence; filed as Kd, often an IC50 or EC50 that approximates it; bounds were set here for any values at or beyond the usual limits of such assays
Settings: source organism: Pseudomonas aeruginosa UCBPP-PA14
quantity_name: Kd

Task: So what's the measured Kd for this one? "AYGSRFHEW"
Output: ≥ 20 µM
